# Tested on: 616215-338-R-J1-PDC complex spheroid viability;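 note: spheroids exposed to compounds for one week before readout; percent viability relative to DMSO vehicle wells taken as 100%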
# Protocol details: Anticancer human tumor 616215-338-R-J1-PDC patient-derived colon adenocarcinoma cell line growth inhibition [POLQ]
# Condition label: second compound 0.0316 µM; first compound 0.316 µM; hits give low values
Value kind: viability, T/C

CC(C)n1c(=O)n(C)c2cnc3cc(F)c(-c4ccc(OCCCN5CCCCC5)nc4)cc3c21 + COC1C(OC(N)=O)C(O)C(Oc2ccc3c(O)c(NC(=O)c4ccc(O)c(CC=C(C)C)c4)c(=O)oc3c2C)OC1(C)C = 104%
CC1COCCN1c1cc(C2(O)CC3CCC(C2)O3)c2cnn(-c3ccn[nH]3)c2n1 (stereo not drawn) + Nc1ccc(C#CCN(C(=O)Cc2ncc(C(F)(F)F)cc2C(F)(F)F)c2ccc(F)cc2)nn1 = 52.2%

Would you kindly look at the next entry?
Ask | Given the entry COc1cc2cc(C(=O)CCC(=O)O)sc2cc1OC + Cc1cccc(N(C)C(=O)C2C(O)CCN2c2nc(C)cc(C(F)(F)F)c2C#N)c1 , report its measured viability, T/C.
Reply | 92%
